meta.source: ChEMBL document CHEMBL1759971

- SUBJECT_OF_TEST: Nuclear receptor subfamily 1 group I member 2 (Homo sapiens)
- Sequence (O75469 whole entry): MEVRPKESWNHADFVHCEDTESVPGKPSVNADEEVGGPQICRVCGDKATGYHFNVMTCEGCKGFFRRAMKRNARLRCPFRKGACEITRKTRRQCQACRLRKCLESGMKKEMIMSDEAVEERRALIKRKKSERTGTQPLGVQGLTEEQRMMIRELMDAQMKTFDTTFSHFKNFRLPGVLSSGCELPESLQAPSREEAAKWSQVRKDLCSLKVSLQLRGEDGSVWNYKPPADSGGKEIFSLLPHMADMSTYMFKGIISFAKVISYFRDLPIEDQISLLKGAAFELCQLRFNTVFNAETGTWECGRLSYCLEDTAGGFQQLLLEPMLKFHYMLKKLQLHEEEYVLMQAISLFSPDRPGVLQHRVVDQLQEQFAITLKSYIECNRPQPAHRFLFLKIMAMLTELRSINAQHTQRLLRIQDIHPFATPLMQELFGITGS
- ASSAY_NAME: Agonist activity at PXR
pEC50: −log10 of the molar value.
QUANTITY_KIND: pEC50

Which pEC50 is reported for this molecule? "Cn1c(-c2ccc(-c3cnc(O)nc3)cc2)nnc1C1(c2ccc(Cl)cc2)CCC1"
< 4.52

For "Cn1c(-c2ccc(NC(=O)c3ccno3)cc2)nnc1C1(c2ccc(Cl)cc2)CCC1" then?
< 4.52

* * *

# IC50 per record follows
- SUBJECT_OF_TEST: 11-beta-hydroxysteroid dehydrogenase 1 (Homo sapiens, UniProt P28845)
- Sequence (P28845 whole entry): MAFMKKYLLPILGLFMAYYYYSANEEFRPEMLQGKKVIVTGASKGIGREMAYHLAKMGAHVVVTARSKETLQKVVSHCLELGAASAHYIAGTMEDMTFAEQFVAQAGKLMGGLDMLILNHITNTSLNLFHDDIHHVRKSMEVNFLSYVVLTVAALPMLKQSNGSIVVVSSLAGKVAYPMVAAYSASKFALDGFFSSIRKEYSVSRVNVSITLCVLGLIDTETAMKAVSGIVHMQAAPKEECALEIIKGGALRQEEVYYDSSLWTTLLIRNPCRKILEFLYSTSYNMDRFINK
- ASSAY_NAME: Inhibition of human 11beta-HSD1 expressed in CHO-K1 cells assessed as conversion of [3H]cortisone to [3H]cortisol by scintillation counting
Give the value in nM but do not write nM after it.

These solved cases illustrate the format of a correct answer.
molecule=Cn1c(-c2ccc(C(=O)N3CCCC3)cc2)nnc1C1(c2ccc(Cl)cc2)CCC1 experimental_value=650
molecule=Cn1c(-c2ccc(NC(=O)c3cnccn3)cc2Cl)nnc1C1(c2ccc(Cl)cc2)CCC1 experimental_value=2.6

Which IC50 is reported for this molecule? "Cn1c(-c2ccc(-c3ccc(N)nn3)cc2)nnc1C1(c2ccc(Cl)cc2)CCC1"
4.8

For "Cn1c(-c2ccc(C(=O)NC(C)(C)C)cc2)nnc1C1(c2ccc(Cl)cc2)CCC1" then?
540

For "Cn1c(-c2ccc(C(N)=O)cc2)nnc1C1(c2ccc(Cl)cc2)CCC1" then?
1
